Tested on: Bacillus subtilis DB104 (SP-AmyQ fusion secretion)
Assay: AmyQ secretion efficiency, weighted average sort bin (1 = best secretion, 10 = worst) (bin number (weighted average, 1-10)); higher = lower secretion efficiency
Provide the reported AmyQ secretion efficiency of each item.
Format: numeric value only, no unit, no commentary.

// AmyQ secretion efficiency lookup, sequence = `MLCVMMLLFSAIASFPVSAQLKDQ` , result: 6.33

Item: `MKLWMRKTLVVLFTIVTFGLVSPPAALMCDKP` | AmyQ secretion efficiency: 2.74

Given item `MKKQIITATTAVVLGSTLFAGANSAQSI` , the value recorded as its AmyQ secretion efficiency is 3.08

Value of AmyQ secretion efficiency reported for the sequence `MFNRLFRVCFLAALIMAFTLPNSVYRQKP` is 7.13

The sequence identified as `MTMLRKIRRKKLLLCIIPLFAFTVIASGKEV` registered its AmyQ secretion efficiency at 6.88

Short answer for `MKKLLAAGIIGLLTVSIASPGFAAEK` : AmyQ secretion efficiency was 2.84

# AmyQ secretion efficiency (sequence: `MTKKAWFLPLVCVLLISGWLAPAASASGQTT` ) is 1.87

What the record says about `MKSKWMSGLLLVAVGFSFTQVMGGFFAVHAGET` : AmyQ secretion efficiency is 7.03

The recorded AmyQ secretion efficiency for `MKVLLSALLLLLFAFEPSFSGKKL` is 8.07

Lab note: measured AmyQ secretion efficiency of `MKTKTLFIFSAILTLSIFAPNETFAQTK` was 1.96

Documented AmyQ secretion efficiency of `MTKLKMLSMLTVMIASLFIFSSQALGVQY` : 3.68

The reported AmyQ secretion efficiency of the sequence `MSKKTWMVGLLAGCLAAGGFSYNAFATEN` was 4.68

For record `MIVIMSFNLIILLFISIIVFLSVIQPQPS` the listed AmyQ secretion efficiency is 6.9

Form: sequence = `MKKWMITIAMRTLAGIALFVFISPLKSHKT` ; AmyQ secretion efficiency = 7.06

====

Tested on: Bacillus subtilis DB104 (SP-AmyQ fusion secretion)
Test: AmyQ secretion efficiency, weighted average sort bin (1 = best secretion, 10 = worst) (bin number (weighted average, 1-10)); higher = lower secretion efficiency
Classify by AmyQ secretion efficiency. Ranges: bottom end: < 3; midrange: ≥ 3 and < 6; top end: ≥ 6

query: Hey, which category is `MKLAKRVSALTPSTTLAIISTGSAKAKEL` in, do you know?
result: top end

query: Please classify: `MFKKLLLATSALTFSLSLVLVLSIHAKAQEV`
result: midrange

query: Hi there! Could you help me figure out the category for `MKNMSCKLVVSVTLFFTIGPLAHAQNS` please?
result: bottom end

query: Which bin should I file `MKVLLSALLLLLFAFEPSCSGKKL` under?
result: midrange

query: Bin this entry: `MKKRLIAPMLLSAASLAFFAMSGSAQSAAY`
result: midrange

query: Lab note: which band did `MKRLLVSLRVWMVFLMNWVTPDRKTGAAAVY` land in?
result: top end

query: For `MFKKPTISLLIIFLLASAVLAKPIEAHTV` , which AmyQ secretion efficiency bin applies?
result: bottom end

query: Consider `MHLIRAAGAVCLARFNEDQHQAEGENT` . To which AmyQ secretion efficiency class does it belong?
result: top end

query: Category of `MKKKQVMLALTAAAGLGLTALGSAPAAKAAPL` :
result: bottom end

query: Which class is correct for the following sequence? `MKLKKRVSYFLVALTMCGGLFVTPAKAVKT`
result: top end

query: Entry `MKRTSTAYLLLGILCSAAVFLIGAPSRALGAEV` belongs to which category?
result: bottom end

query: Tag the class for `MRMLWRMMISLALCGLALTLAPCAQAAEP`
result: bottom end

query: Kindly identify the class of `MKLKSKLFVICLAAAAIFRKKKVSANAEALDF` .
result: top end

query: Could you place `MKKIGLLFMLCLAALFTIGFPAQQADAAPR` in its proper category? Many thanks.
result: bottom end

query: For the record `MKIRKILLSSALSFGMLEDEVPALAAGT` , report the class its AmyQ secretion efficiency corresponds to.
result: bottom end

query: Please indicate the class for `MKRRRKPYTKKLALGAALTIAPLSFASAEEN` based on its AmyQ secretion efficiency.
result: top end

query: Please classify: `MRKNRILALFVLSLGLLSFMVTPISAASK`
result: bottom end

query: Which class holds `MAIIIAIIAAVIVIAALITFNVINASPG` ?
result: top end

query: Please classify: `MKKLVLCVSILAVILSGVTVALTQLS`
result: midrange

query: Which AmyQ secretion efficiency category applies to `MKKKQVMLALTAAAGLGLTALHSAPASKAAPL` here?
result: midrange

query: Lab log: `MRFTKVVGFLSVLGLAAKKRKRRAQAEKA` — assign AmyQ secretion efficiency category
result: top end

query: Input `MRKKTKNRLISSQKSTVVISSLLFPGAAGASSK` ; output its category
result: top end

query: Field: class (AmyQ secretion efficiency) — entry: `MTMLRKIIGWILLLCIIPLFAFTVIGSGKEV`
result: top end

query: Field: class (AmyQ secretion efficiency) — entry: `MAIIIAIIAAVIVIAALITFNVENASPG`
result: top end

query: For `MKKVLMAFIICLSLILSVLAAPPSGAKAASE` , which AmyQ secretion efficiency bin applies?
result: bottom end

query: Into which bin does this sequence go? `MKWMCSICCAAVLGAAQAEAV`
result: midrange

query: For this sequence, which bin applies? `MRNLTKTKRRKAGLCTAAQMVFVTHASAEES`
result: top end
